System: Staphylococcus aureus ATCC 9144
Type: cell-based
Particulars: Table S3; technical replicate 1, biological replicate BR1
Description: The minimal inhibitory concentration (MIC) of peptides 1a, 1b, 2a, and 2b were determined by broth microdilution according to the Clinical Laboratory Standard Institute (CLSI) method […]-A9. The MICs of the peptides 1c, 1d, 2c, and 2d were determined by broth dilution according to the European Committee for Antimicrobial Susceptibility Testing (EUCAST). […]
Where a SMILES comes first, the peptide text is derived from it. [ ]: non-standard residue; d: D form. Bip = N[C@@H](Cc1ccc(-c2ccccc2)cc1)C(=O)O; Lys(N3) = [N-]=[N+]=NCCCC[C@H](N)C(=O)O
Below, each entry is listed with its recorded MIC S. aureus ATCC 9144.
I only need the number, in µg/mL, no unit after it.

// worked examples, MIC S. aureus ATCC 9144 included
{"Compound": "[N-]=[N+]=NCCCC[C@@H]1NC(=O)[C@H](Cc2ccccc2)NC(=O)[C@H](CCCNC(=N)N)NC(=O)[C@H](Cc2ccc(-c3ccccc3)cc2)NC(=O)[C@H](Cc2ccc(-c3ccccc3)cc2)NC(=O)[C@H](CCCNC(=N)N)NC1=O [2d] (cyclo(R[Bip][Bip]RF[Lys(N3)]))", "MIC S. aureus ATCC 9144 [µg/mL]": 8}
{"Compound": "[N-]=[N+]=NCCCC[C@H](NC(=O)[C@H](Cc1ccccc1)NC(=O)[C@H](CCCNC(=N)N)NC(=O)[C@H](Cc1c[nH]c2ccccc12)NC(=O)[C@H](Cc1c[nH]c2ccccc12)NC(=O)[C@@H](N)CCCNC(=N)N)C(N)=O [1c] (H-RWWRF[Lys(N3)]-NH2)", "MIC S. aureus ATCC 9144 [µg/mL]": 32}
{"Compound": "[N-]=[N+]=NCCCC[C@H](NC(=O)[C@H](Cc1ccccc1)NC(=O)[C@H](CCCNC(=N)N)NC(=O)[C@H](Cc1ccc(-c2ccccc2)cc1)NC(=O)[C@H](Cc1ccc(-c2ccccc2)cc1)NC(=O)[C@@H](N)CCCNC(=N)N)C(N)=O [2c] (H-R[Bip][Bip]RF[Lys(N3)]-NH2)", "MIC S. aureus ATCC 9144 [µg/mL]": 8}

-- ask Would you kindly share the measured MIC S. aureus ATCC 9144 for [N-]=[N+]=NCCCC[C@@H]1NC(=O)[C@H](Cc2ccccc2)NC(=O)[C@H](CCCNC(=N)N)NC(=O)[C@H](Cc2c[nH]c3ccccc23)NC(=O)[C@H](Cc2c[nH]c3ccccc23)NC(=O)[C@H](CCCNC(=N)N)NC1=O [1d] (cyclo(RWWRF[Lys(N3)])) ?
-- reply 8
